These records show pIC50 for human V1a receptor (Homo sapiens).
Would you please state pIC50, meaning minus log10 of the concentration in mol/L, as a bare number?

[
  {
    "molecule": "O=C(NCc1cccc(C(F)(F)F)c1)[C@@H](CC(=O)N1CCN(N2CCCC2)CC1)N1C(=O)[C@@H](N2C(=O)OC[C@@H]2c2ccccc2)[C@H]1/C=C/c1ccccc1 [Example 134B]",
    "pIC50": 7.35
  },
  {
    "molecule": "Cc1cccc(CN(C)C(=O)C(CCC(=O)N2CCN(C3CCCCC3)CC2)N2C(=O)C(N3C(=O)OCC3c3ccccc3)C2C=Cc2ccccc2)c1 (stereo not drawn) [Example 221A]",
    "pIC50": 8.57
  }
]

Now for the molecule whose pIC50 we want.
[ask] Reported pIC50 for O=C(N[C@@H]1CCCc2ccccc21)[C@H](CCC(=O)N1CCN(C2CCCCC2)CC1)N1C(=O)[C@@H](N2C(=O)OC[C@@H]2c2ccccc2)[C@H]1/C=C/c1cc(Cl)cc(Cl)c1 : what is it?
[reply] 8.74
